assay_text: Clearance in Balb/c mouse at 10 mg/kg, iv measured for 0.08 to 24 hrs by LC-MS/MS analysis
Type: ADME, organism-based
condition_label: in vivo, time 0.08-24 hrs
assay_metric: clearance
Put your answer as a value accompanied by its unit after it.

Name the reported clearance value associated with the compound Cc1cc(=O)n(-c2cccc(CN[C@H]3CCC[C@H](Nc4ccc5[nH]ncc5c4)C3)c2)cc1F
158 mL/min/kg

====

Hi there, I'd appreciate the recorded IC50 for every entry that follows.
tested_system: Rho-associated protein kinase 2 (Homo sapiens)
Sequence (O75116 whole entry): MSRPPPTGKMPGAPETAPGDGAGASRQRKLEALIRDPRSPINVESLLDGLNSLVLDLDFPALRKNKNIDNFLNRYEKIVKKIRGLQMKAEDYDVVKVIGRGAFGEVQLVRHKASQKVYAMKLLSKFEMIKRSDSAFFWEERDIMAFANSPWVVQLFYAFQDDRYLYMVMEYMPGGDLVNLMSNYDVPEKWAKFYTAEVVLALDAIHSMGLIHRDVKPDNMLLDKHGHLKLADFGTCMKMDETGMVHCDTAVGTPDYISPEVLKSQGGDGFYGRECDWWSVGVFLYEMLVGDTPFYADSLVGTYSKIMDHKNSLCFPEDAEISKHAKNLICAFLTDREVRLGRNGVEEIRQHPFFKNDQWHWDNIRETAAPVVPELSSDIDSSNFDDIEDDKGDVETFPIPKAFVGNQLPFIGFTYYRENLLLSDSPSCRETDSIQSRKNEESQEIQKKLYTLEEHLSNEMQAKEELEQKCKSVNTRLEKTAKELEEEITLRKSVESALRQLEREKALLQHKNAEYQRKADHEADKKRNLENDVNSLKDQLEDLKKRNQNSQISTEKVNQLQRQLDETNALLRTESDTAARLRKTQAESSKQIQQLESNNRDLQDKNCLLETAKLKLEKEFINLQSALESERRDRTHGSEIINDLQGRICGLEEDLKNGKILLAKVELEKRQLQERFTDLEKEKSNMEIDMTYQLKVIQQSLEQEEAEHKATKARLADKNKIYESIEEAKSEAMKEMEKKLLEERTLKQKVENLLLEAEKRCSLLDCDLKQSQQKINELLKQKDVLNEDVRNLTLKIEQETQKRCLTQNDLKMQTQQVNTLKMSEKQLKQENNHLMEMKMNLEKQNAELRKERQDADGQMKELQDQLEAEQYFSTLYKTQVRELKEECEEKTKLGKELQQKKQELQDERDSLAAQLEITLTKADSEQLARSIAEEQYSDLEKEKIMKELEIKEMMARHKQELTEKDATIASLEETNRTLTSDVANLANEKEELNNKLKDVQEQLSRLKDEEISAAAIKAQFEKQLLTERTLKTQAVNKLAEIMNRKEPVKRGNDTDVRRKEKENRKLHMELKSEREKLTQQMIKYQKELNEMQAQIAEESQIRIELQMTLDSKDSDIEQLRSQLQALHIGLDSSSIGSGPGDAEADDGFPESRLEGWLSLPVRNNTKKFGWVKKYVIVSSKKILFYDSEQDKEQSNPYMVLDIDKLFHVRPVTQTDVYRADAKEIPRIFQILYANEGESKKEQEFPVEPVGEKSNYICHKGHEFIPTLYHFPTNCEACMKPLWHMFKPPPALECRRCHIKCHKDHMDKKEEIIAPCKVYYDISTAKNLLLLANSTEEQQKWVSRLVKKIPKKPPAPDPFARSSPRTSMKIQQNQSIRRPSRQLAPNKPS
assay_text: Inhibition of ROCK2 (unknown origin) by HTRF assay
Field format: number, assumed nM, no unit text.

For the compound shown here, NC(=O)c1ccn(-c2cccc(CN[C@H]3CCC[C@H](Nc4ccc5[nH]ncc5c4)C3)c2)c(=O)c1 , give the reported IC50.
102

Now consider O=c1cc(F)ccn1-c1cccc(CN[C@H]2CCC[C@H](Nc3ccc4[nH]ncc4c3)C2)c1 and answer again.
36.6

Entry Cc1ccc(=O)n(-c2cccc(CN[C@H]3CCC[C@@H](Nc4ccc5[nH]ncc5c4)C3)c2)c1 please
138

Same lookup for O=c1cc(F)ccn1-c1cccc(CN[C@H]2CCC[C@@H](Nc3ccc4[nH]ncc4c3)C2)c1 , please.
88.1

Please answer likewise for CCc1ccn(-c2cccc(CN[C@H]3CCC[C@@H](Nc4ccc5[nH]ncc5c4)C3)c2)c(=O)c1C
6.1

Query O=c1cc(-c2ccccc2)ccn1-c1cccc(CN[C@H]2CCC[C@@H](Nc3ccc4[nH]ncc4c3)C2)c1 next
1.7

// repeat for O=c1cc(C(F)(F)F)ccn1-c1cccc(CN[C@H]2CCC[C@H](Nc3ccc4[nH]ncc4c3)C2)c1 and report
173

Quick one: Cc1ccn(-c2cccc(CN[C@H]3CCC[C@@H](Nc4ccc5[nH]ncc5c4)C3)c2)c(=O)c1
11.9

Next entry: Nc1nc(=O)n(-c2cccc(CN[C@H]3CCC[C@H](Nc4ccc5[nH]ncc5c4)C3)c2)cc1F
66.2

# repeat for O=c1ccccn1-c1cccc(CN[C@H]2CCC[C@@H](Nc3ccc4[nH]ncc4c3)C2)c1
73.7

Same lookup for Nc1ccn(-c2cccc(CN3CCCC(Nc4ccc5[nH]ncc5c4)C3)c2)c(=O)n1 (stereo not given) , please.
1

Would you mind doing O=c1cc(-c2ccccc2)ccn1-c1cccc(CN[C@H]2CCC[C@H](Nc3ccc4[nH]ncc4c3)C2)c1 as well?
3

Same again, this time with Nc1ccn(-c2cccc(CN[C@H]3CCC[C@@H](Nc4ccc5[nH]ncc5c4)C3)c2)c(=O)c1
77.5

Also need CCc1ccn(-c2cccc(CN[C@H]3CCC[C@H](Nc4ccc5[nH]ncc5c4)C3)c2)c(=O)c1C , thanks.
13.1

Let us now turn to Nc1ccn(-c2cccc(CNC3CCCC(Nc4ccc5[nH]ncc5c4)C3)c2)c(=O)n1 (stereo not given)
0.2

Now the same for Cc1cc(=O)n(-c2cccc(CN[C@H]3CCC[C@H](Nc4ccc5[nH]ncc5c4)C3)c2)cc1N
561

Now the same for Nc1nc(=O)n(-c2cccc(CN[C@H]3CCC[C@@H](Nc4ccc5[nH]ncc5c4)C3)c2)cc1F
83.7

Record: N#Cc1ccn(-c2cccc(CN[C@H]3CCC[C@@H](Nc4ccc5[nH]ncc5c4)C3)c2)c(=O)c1
77.1

Same for CC(C)(C)c1ccn(-c2cccc(CN[C@H]3CCC[C@@H](Nc4ccc5[nH]ncc5c4)C3)c2)c(=O)c1
1.6

Cool, now NC(=O)c1ccn(-c2cccc(CN[C@H]3CCC[C@@H](Nc4ccc5[nH]ncc5c4)C3)c2)c(=O)c1
130

Same lookup for CC(C)(C)c1ccn(-c2cccc(CN[C@H]3CCC[C@H](Nc4ccc5[nH]ncc5c4)C3)c2)c(=O)c1 , please.
1.3

Next compound: Cc1ccc(=O)n(-c2cccc(CN[C@H]3CCC[C@H](Nc4ccc5[nH]ncc5c4)C3)c2)c1
35.4

What do we get for Cc1cccn(-c2cccc(CN[C@H]3CCC[C@H](Nc4ccc5[nH]ncc5c4)C3)c2)c1=O ?
18.7

Repeat with CC(C)CCC(=O)Nc1ccn([C@H]2CC[C@H](O[C@H]3O[C@H](C)[C@@H](N(C)C)[C@H](O)[C@H]3O)[C@@H](C)O2)c(=O)n1
72.8

What about this compound? Nc1ccn(-c2ccc(CN3CCCCC(Nc4ccc5[nH]ncc5c4)C3)cc2)c(=O)n1 (stereo not given)
2

Same question for Nc1ccn(-c2cccc(CN[C@H]3CCC[C@H](Nc4ccc5[nH]ncc5c4)C3)c2)c(=O)c1 please.
54

Same again, this time with O=c1ccccn1-c1cccc(CN[C@H]2CCC[C@H](Nc3ccc4[nH]ncc4c3)C2)c1
42.4

Same thing, different compound: O=c1cc(C(F)(F)F)ccn1-c1cccc(CN[C@H]2CCC[C@@H](Nc3ccc4[nH]ncc4c3)C2)c1
207

How about this compound: Nc1ccn(-c2ccc(CN3CCCC(Nc4ccc5[nH]ncc5c4)C3)cc2)c(=O)n1 (stereo not given)
5

What do you have for Cc1cccn(-c2cccc(CN[C@H]3CCC[C@@H](Nc4ccc5[nH]ncc5c4)C3)c2)c1=O ?
153

====

tested_system: Rho-associated protein kinase 1 (Homo sapiens)
Sequence (Q13464 whole entry): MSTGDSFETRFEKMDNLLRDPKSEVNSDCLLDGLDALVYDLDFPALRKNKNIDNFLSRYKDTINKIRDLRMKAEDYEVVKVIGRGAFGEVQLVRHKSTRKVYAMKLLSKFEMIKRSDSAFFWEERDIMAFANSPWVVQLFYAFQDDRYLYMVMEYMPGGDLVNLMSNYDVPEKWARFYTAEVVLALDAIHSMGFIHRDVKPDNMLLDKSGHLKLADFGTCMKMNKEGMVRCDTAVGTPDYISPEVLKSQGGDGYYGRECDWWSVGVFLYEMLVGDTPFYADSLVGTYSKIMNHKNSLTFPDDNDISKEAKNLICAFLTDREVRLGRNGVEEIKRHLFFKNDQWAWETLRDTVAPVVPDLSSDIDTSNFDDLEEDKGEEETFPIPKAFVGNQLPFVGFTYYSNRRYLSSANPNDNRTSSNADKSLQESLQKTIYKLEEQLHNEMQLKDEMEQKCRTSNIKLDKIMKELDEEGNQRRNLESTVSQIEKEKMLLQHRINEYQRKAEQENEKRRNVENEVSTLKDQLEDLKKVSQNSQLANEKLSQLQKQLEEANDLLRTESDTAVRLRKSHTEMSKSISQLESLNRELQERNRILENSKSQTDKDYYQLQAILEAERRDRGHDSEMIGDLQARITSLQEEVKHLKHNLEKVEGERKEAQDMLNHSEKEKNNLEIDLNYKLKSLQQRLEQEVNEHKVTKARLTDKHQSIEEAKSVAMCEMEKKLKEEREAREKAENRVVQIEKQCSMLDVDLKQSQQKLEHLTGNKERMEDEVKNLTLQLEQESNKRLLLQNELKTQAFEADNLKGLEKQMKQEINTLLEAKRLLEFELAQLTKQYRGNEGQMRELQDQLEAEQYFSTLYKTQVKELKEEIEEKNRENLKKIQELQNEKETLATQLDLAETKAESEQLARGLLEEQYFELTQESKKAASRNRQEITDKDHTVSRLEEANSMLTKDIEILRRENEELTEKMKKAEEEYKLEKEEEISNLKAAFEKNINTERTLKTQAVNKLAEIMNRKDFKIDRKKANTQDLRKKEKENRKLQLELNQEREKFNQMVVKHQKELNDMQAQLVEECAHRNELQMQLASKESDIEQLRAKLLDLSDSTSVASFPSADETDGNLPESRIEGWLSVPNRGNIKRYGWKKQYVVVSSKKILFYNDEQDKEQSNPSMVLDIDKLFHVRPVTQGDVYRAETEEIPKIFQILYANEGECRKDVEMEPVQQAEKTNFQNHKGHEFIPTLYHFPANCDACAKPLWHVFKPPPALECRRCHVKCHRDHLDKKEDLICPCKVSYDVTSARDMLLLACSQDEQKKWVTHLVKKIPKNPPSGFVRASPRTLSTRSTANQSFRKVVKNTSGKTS
assay_text: Inhibition of ROCK1 (unknown origin) by HTRF assay
assay_metric: pIC50
Expect pIC50 as a plain number equal to -log10 of the molar concentration.

Sample O=c1cc(C(F)(F)F)ccn1-c1cccc(CN[C@H]2CCC[C@H](Nc3ccc4[nH]ncc4c3)C2)c1 — what was its pIC50?
6.55

One more compound: N#Cc1ccn(-c2cccc(CN[C@H]3CCC[C@@H](Nc4ccc5[nH]ncc5c4)C3)c2)c(=O)c1
6.57

What about Cc1ccn(-c2cccc(CN[C@H]3CCC[C@@H](Nc4ccc5[nH]ncc5c4)C3)c2)c(=O)c1 ?
6.09

Try this compound next: CCc1ccn(-c2cccc(CN[C@H]3CCC[C@H](Nc4ccc5[nH]ncc5c4)C3)c2)c(=O)c1C
6.68

Field entry: O=c1cc(F)ccn1-c1cccc(CN[C@H]2CCC[C@@H](Nc3ccc4[nH]ncc4c3)C2)c1
6.56

Item: Cc1cc(=O)n(-c2cccc(CN[C@H]3CCC[C@H](Nc4ccc5[nH]ncc5c4)C3)c2)cc1F
7.15

Here is the next compound: Cc1cc(=O)n(-c2cccc(CN[C@H]3CCC[C@@H](Nc4ccc5[nH]ncc5c4)C3)c2)cc1F
6.67

What about this compound? Cc1cccn(-c2cccc(CN[C@H]3CCC[C@H](Nc4ccc5[nH]ncc5c4)C3)c2)c1=O
6.56

Next compound up: NC(=O)c1ccn(-c2cccc(CN[C@H]3CCC[C@@H](Nc4ccc5[nH]ncc5c4)C3)c2)c(=O)c1
6.33

Can you check O=c1cc(F)ccn1-c1cccc(CN[C@H]2CCC[C@H](Nc3ccc4[nH]ncc4c3)C2)c1 next?
6.68

Try this compound next: CCc1ccn(-c2cccc(CN[C@H]3CCC[C@@H](Nc4ccc5[nH]ncc5c4)C3)c2)c(=O)c1C
6.51

Next entry: Cc1ccc(=O)n(-c2cccc(CN[C@H]3CCC[C@@H](Nc4ccc5[nH]ncc5c4)C3)c2)c1
6.99

Next: O=c1ccccn1-c1cccc(CN[C@H]2CCC[C@@H](Nc3ccc4[nH]ncc4c3)C2)c1
6.19

Also check Cc1ccc(=O)n(-c2cccc(CN[C@H]3CCC[C@H](Nc4ccc5[nH]ncc5c4)C3)c2)c1
6.82

And Cc1ccn(-c2cccc(CN[C@H]3CCC[C@H](Nc4ccc5[nH]ncc5c4)C3)c2)c(=O)c1 ?
6.77

What about this compound? Cc1cccn(-c2cccc(CN[C@H]3CCC[C@@H](Nc4ccc5[nH]ncc5c4)C3)c2)c1=O
6.09

Same lookup for O=c1cc(-c2ccccc2)ccn1-c1cccc(CN[C@H]2CCC[C@H](Nc3ccc4[nH]ncc4c3)C2)c1 , please.
7.02

Another compound: O=c1cc(-c2ccccc2)ccn1-c1cccc(CN[C@H]2CCC[C@@H](Nc3ccc4[nH]ncc4c3)C2)c1
7.00

Another compound: NC(=O)c1ccn(-c2cccc(CN[C@H]3CCC[C@H](Nc4ccc5[nH]ncc5c4)C3)c2)c(=O)c1
6.62

Lookup O=c1ccccn1-c1cccc(CN[C@H]2CCC[C@H](Nc3ccc4[nH]ncc4c3)C2)c1
6.79

Can you check O=c1cc(C(F)(F)F)ccn1-c1cccc(CN[C@H]2CCC[C@@H](Nc3ccc4[nH]ncc4c3)C2)c1 next?
6.01

Follow-up item: CC(C)(C)c1ccn(-c2cccc(CN[C@H]3CCC[C@H](Nc4ccc5[nH]ncc5c4)C3)c2)c(=O)c1
6.68

What do we get for CC(C)(C)c1ccn(-c2cccc(CN[C@H]3CCC[C@@H](Nc4ccc5[nH]ncc5c4)C3)c2)c(=O)c1 ?
6.47

====

assay_text: Solubility in aqueous buffer at pH 7.4
Assay type: physicochemical
assay_metric: solubility (µg/mL)
# unit: µg/mL | format: bare number

For the compound shown here, Cc1cc(=O)n(-c2cccc(CN[C@H]3CCC[C@H](Nc4ccc5[nH]ncc5c4)C3)c2)cc1F , give the reported solubility.
193
